Catalogue of IC50 values
- target entity: human CGT (ceramide galactosyltransferase), CHO/CGT lysate (Homo sapiens)
- Construct: Full-length human CGT cDNA was cloned into the BamH1/Xho1 site of pcDNA3.1 (+); expressed in transfected cells; host or cells: Chinese hamster ovary (CHO) cells; lysate prepared with M-PER
- Sequence (Q16880 21-541): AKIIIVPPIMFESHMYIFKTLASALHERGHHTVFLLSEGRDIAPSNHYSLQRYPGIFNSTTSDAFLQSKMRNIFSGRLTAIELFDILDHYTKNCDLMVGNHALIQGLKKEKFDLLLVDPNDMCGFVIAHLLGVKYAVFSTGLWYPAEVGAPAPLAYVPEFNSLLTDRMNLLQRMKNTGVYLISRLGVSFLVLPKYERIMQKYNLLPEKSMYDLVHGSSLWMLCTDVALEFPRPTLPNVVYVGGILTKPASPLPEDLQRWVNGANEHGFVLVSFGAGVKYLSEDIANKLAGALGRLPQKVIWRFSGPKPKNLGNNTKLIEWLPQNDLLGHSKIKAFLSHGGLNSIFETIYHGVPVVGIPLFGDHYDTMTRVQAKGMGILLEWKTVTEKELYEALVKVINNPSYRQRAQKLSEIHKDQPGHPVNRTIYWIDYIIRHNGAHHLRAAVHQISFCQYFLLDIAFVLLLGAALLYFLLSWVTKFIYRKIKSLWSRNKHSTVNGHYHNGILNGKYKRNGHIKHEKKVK
- experimental details: CGT enzyme assay, RapidFire/MS/MS readout (Table 1 ranges with one asterisk *)
- Format: biochemical
- experimental conditions: RapidFire method (range with one asterisk *)
Structures can show the parent of a compound that is named as a salt.

**Query** Item NC1CC2CCC(C1)N2C(=O)[C@@H](NS(=O)(=O)c1ccc2cc(OC3CCCC3)ccc2c1)C(F)(F)c1ccc(C(F)(F)F)cc1 (stereo partly drawn) : provide IC50
**Result** < 1000 nM

**Query** Item `NC1CCN(C(=O)[C@H](NS(=O)(=O)c2ccc3cc(OC4CCCC4)ccc3c2)C(F)(F)c2ccc(Cl)s2)CC1` : provide IC50
**Result** 1000 to 10000 nM

**Query** Item NC1CC2CCC(C1)N2C(=O)[C@@H](NS(=O)(=O)c1ccc2cc(OC3CCCC3)ccc2c1)C(F)(F)c1cccc(Oc2ccccc2)c1 (stereo partly drawn) : provide IC50
**Result** < 1000 nM

**Query** Item CN([C@H](C(=O)N1C2CCC1CC(N)C2)C(F)(F)c1ccc(Oc2ccccc2)cc1)S(=O)(=O)c1ccc2cc(OC3CCCC3)ccc2c1 (stereo partly drawn) [Compound 87-1, trifluoroacetate] : provide IC50
**Result** < 1000 nM

**Query** Item CN([C@H](C(=O)N1C2CCC1CC(N)C2)C(F)(F)c1ccc(O)cc1)S(=O)(=O)c1ccc2cc(OC3CCCC3)ccc2c1 (stereo partly drawn) [Compound 110-1, trifluoroacetate] : provide IC50
**Result** 1000 to 10000 nM

**Query** Item NC1CC2CCC(C1)N2C(=O)[C@H](NS(=O)(=O)c1ccc2cc(OC3CCCCC3)ccc2c1)C(F)(F)c1ccc(Br)cc1 (stereo partly drawn) [Compound 33-2, trifluoroacetate] : provide IC50
**Result** 30000 to 100000 nM
